Entry source: paper PMC9064041

Below, each entry is listed alongside its reported MIC.
Test system: Lactobacillus crispatus HM-371
# number only, unit mg/L dropped from output

O=C(Nc1nnc(-c2cc(Cl)cc(Cl)c2)o1)c1ccc(SC(F)(F)F)cc1	16

Now for the molecule whose MIC we want.
Task: Identify measured MIC obtained with Lactobacillus crispatus HM-371 for CN[C@H](CC(C)C)C(=O)N[C@H]1C(=O)N[C@@H](CC(N)=O)C(=O)N[C@H]2C(=O)N[C@H]3C(=O)N[C@H](C(=O)N[C@H](C(=O)O)c4cc(O)cc(O)c4-c4cc3ccc4O)[C@H](O)c3ccc(c(Cl)c3)Oc3cc2cc(c3O[C@@H]2O[C@H](CO)[C@@H](O)[C@H](O)[C@H]2O[C@H]2C[C@](C)(N)[C@H](O)[C@H](C)O2)Oc2ccc(cc2Cl)[C@H]1O .
Output: 2
